target: Nav1.7 (or SCN9A) channel (Homo sapiens); assay: Nav1.7 (hSCN9A) PatchXpress electrophysiology in HEK cells; conditions: PatchXpress platform; HEK cells stably expressing hSCN9A; held at V1/2 of inactivation; calculated from single point % inhibition; read-out: Nav1.7 EIC50 (estimated IC-50)
Sequence (Q15858 whole entry): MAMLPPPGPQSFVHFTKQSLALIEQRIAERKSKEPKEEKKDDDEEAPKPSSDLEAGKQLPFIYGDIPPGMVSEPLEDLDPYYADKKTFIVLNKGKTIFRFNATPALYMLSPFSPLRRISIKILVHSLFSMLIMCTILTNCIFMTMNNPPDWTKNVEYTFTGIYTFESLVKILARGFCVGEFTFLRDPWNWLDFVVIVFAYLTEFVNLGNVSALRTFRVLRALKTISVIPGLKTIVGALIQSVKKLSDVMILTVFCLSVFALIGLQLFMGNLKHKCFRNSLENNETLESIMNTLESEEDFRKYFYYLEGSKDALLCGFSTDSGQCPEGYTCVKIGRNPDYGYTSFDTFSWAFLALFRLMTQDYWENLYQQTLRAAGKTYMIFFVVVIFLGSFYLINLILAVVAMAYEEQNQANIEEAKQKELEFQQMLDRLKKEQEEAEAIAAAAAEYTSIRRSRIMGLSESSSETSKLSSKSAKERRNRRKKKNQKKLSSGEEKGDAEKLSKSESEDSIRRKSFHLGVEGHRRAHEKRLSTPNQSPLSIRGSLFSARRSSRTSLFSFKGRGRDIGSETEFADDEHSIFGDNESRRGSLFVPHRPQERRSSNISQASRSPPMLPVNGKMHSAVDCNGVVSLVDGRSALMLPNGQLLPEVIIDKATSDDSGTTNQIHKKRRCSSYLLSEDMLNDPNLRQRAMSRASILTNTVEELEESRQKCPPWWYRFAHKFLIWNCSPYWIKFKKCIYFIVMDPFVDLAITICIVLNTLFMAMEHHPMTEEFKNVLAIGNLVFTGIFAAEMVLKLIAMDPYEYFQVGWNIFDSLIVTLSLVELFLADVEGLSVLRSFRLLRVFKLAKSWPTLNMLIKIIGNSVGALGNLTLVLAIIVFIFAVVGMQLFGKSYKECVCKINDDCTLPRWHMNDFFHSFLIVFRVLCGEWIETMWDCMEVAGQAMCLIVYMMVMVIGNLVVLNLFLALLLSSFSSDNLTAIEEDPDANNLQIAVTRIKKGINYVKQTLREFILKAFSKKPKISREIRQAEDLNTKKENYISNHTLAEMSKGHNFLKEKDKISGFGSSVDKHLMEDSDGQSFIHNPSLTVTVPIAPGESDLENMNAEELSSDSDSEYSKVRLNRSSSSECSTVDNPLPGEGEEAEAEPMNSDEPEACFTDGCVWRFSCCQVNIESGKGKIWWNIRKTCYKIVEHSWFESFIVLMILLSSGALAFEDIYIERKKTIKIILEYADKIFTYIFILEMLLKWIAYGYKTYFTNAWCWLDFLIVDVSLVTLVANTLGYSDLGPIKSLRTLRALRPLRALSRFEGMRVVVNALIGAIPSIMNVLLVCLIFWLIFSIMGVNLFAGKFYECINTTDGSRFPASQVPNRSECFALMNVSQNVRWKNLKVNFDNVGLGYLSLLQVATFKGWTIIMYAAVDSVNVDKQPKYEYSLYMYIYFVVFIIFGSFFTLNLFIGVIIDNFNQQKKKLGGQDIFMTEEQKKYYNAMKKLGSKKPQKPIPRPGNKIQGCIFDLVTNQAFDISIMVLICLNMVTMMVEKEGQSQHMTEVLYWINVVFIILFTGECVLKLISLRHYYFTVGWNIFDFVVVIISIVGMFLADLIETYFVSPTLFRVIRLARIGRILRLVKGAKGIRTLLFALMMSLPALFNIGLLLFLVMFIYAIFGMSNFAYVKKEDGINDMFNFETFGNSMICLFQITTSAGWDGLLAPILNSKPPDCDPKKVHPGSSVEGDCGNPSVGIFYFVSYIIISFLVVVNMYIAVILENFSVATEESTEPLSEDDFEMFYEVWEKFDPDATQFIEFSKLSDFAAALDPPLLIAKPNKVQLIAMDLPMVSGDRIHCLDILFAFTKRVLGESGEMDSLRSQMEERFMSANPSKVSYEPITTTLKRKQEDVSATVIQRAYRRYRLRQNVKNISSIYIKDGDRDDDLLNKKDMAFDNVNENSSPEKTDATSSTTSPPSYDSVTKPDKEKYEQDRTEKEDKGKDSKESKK
Where a name gives a salt, the structure may show the parent alone.
Here the recorded IC50 is given for each entry.
metric_name: IC50 (nM)

>>> result_number("N#Cc1cccc(-c2ccc(Oc3cc(F)c(S(=O)(=O)Nc4nncs4)cc3Cl)c(-c3ccnnc3)c2)c1 [Example 39]")
7.7
>>> result_number("O=S(=O)(Nc1nncs1)c1cc(Cl)c(Oc2cc(-c3ccccc3F)c(Cl)cc2-c2ccnnc2)cc1F [Example 38]")
18
>>> result_number("O=S(=O)(Nc1nncs1)c1cc(Cl)c(Oc2cc(-c3cccc(F)c3)c(Cl)cc2-c2ccnnc2)cc1F [Example 36]")
11
>>> result_number("CNCc1ccccc1-c1ccc(Oc2ccc(S(=O)(=O)Nc3nccs3)cc2C#N)c(-c2ccnn2C)c1 [Example 23, trifluoroacetate salt]")
5.1
>>> result_number("O=S(=O)(Nc1nncs1)c1cc(Cl)c(Oc2ccc(-c3cccc(C(F)(F)F)c3)cc2-c2ccnnc2)cc1F [Example 5]")
1.3
>>> result_number("O=S(=O)(Nc1nncs1)c1cc(Cl)c(Oc2ccc(-c3ccccc3C(F)(F)F)cc2-c2ccnnc2)cc1F [Example 4]")
2.9
>>> result_number("COc1cccc(-c2ccc(Oc3ccc(S(=O)(=O)Nc4nccs4)cc3C#N)c(-c3ccnn3C)c2)c1 [Example 18]")
18
>>> result_number("Cn1nccc1-c1cc(-c2cccc(CN)c2)ccc1Oc1ccc(S(=O)(=O)Nc2nccs2)cc1C#N [Example 21, hydrochloride salt]")
100
>>> result_number("CN1CC(n2nccc2-c2cc(-c3ccc(C(F)(F)F)cc3)ccc2Oc2cc(F)c(S(=O)(=O)Nc3nncs3)cc2Cl)C1 [Example 14]")
1.1
>>> result_number("O=S(=O)(Nc1nncs1)c1cc(Cl)c(Oc2ccc(-c3ccc(C(F)(F)F)cc3)cc2-c2ccnnc2)cc1F [Example 6]")
2.9
>>> result_number("O=S(=O)(Nc1nncs1)c1cc(Cl)c(Oc2ccc(-c3ccnc(C(F)(F)F)c3)cc2-c2ccnnc2)cc1F [Example 33]")
16
>>> result_number("Nc1n[nH]cc1-c1cc(-c2cccc(C(F)(F)F)c2)ccc1Oc1cc(F)c(S(=O)(=O)Nc2nncs2)cc1Cl [Example 25]")
0.8
>>> result_number("O=S(=O)(Nc1ccncn1)c1cc(Cl)c(Oc2ccc(-c3ccc(C(F)(F)F)cc3)cc2-c2ccnc(N3CCNCC3)c2)cc1F [Example 35, hydrochloride salt]")
2.2
>>> result_number("N#Cc1cccc(-c2ccc(Oc3cc(F)c(S(=O)(=O)Nc4nncs4)cc3Cl)c(-c3c[nH]nc3N)c2)c1 [Example 32]")
5.3
